Where do these numbers come from? They come from patent US20210340231A1.

Measured OD 450 nm (reference 630 nm) values are reported for all entries that follow.
SYSTEM TESTED: T1, CTNI quality control recombinant protein (PK2-CTNI-1, 170120, produced by the applicant) (human, UniProt P19429 2-210, limits assumed)
T1 construct: also called cardiac troponin I
T1 sequence (P19429 2-210 limits assumed): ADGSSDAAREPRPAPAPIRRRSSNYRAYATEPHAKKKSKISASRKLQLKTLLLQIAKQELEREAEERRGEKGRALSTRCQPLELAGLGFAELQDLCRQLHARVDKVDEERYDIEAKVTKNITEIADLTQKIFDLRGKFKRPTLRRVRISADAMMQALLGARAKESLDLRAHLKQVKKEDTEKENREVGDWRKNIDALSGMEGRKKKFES
TEST METHOD NOTES: indirect ELISA, cTnI coated 1 ug/ml, antibody 8 ug/ml
Quick reminder: number only, in OD, skip the unit.

Take a look at these entries with their results.
binder="Mutation 5 (antibody, V domains shown, built as for Mutation 1) VH: EVQLQQSGAELVKPGASVKLSCTASGFNLKDYFMHWMKQRTEQGLDWIGRIEPEDAETRYAPEFQGKATITADTSSNTAYLQLSTLTSEDTAVYYCARYYSSYIPFVYWGQGTLVTASA VL: DVVMTQTPLSLSVSLGDQASISCRSSQSIIYSNKHTYLHWYLQKPGQSPKLLIFQISQRFSGVPDRFSGSGSGTDFTLKINRVEAEDLGVYFCSNSTHLPFTFGSGTKLEIKR" units_text=OD recorded_number=1.69
binder="Mutation 4 (antibody, V domains shown, built as for Mutation 1) VH: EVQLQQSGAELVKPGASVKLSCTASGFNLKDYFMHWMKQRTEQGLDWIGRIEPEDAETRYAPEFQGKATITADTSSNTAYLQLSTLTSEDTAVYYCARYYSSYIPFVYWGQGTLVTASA VL: DVVMTQTPLSLSVSLGDQASISCRSSQSIIYSNKHTYLHWYLQKPGQSPKLLIFQISNRFSGVPDRFSGSGSGTDFTLKINRVEAEDLGVYFCSNSTHLPFTFGSGTKLEIKR" units_text=OD recorded_number=1.75
binder="Mutation 3 (antibody, V domains shown, built as for Mutation 1) VH: EVQLQQSGAELVKPGASVKLSCTASGFNLKEYFMHWMKQRTEQGLDWIGRIDPEDAETRYAPEFQGKATITADTSSNTAYLQLSTLTSEDTAVYYCARYYTSYIPFVYWGQGTLVTASA VL: DVVMTQTPLSLSVSLGDQASISCRSSQSIIYSNRHTYLHWYLQKPGQSPKLLIFQISQRFSGVPDRFSGSGSGTDFTLKINRVEAEDLGVYFCSQSTHLPFTFGSGTKLEIKR" units_text=OD recorded_number=1.86

Exercise: Consider the binder shown here: Mutation 1 (antibody, V domains shown, No residue numbers are printed, so each chain is built as FR1-CDR1-FR2-CDR2-FR3-CDR3-FR4-constant) VH: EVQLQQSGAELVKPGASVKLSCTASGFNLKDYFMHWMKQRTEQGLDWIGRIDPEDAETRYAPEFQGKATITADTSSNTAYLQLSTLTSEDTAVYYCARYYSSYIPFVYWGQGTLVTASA VL: DVVMTQTPLSLSVSLGDQASISCRSSQSIIYSNRHTYLHWYLQKPGQSPKLLIFQISNRFSGVPDRFSGSGSGTDFTLKINRVEAEDLGVYFCSQSTHLPFTFGSGTKLEIKR What is its recorded OD 450 nm (reference 630 nm)?
Key: 2.07

Exercise: Consider the binder shown here: Mutation 2 (antibody, V domains shown, built as for Mutation 1) VH: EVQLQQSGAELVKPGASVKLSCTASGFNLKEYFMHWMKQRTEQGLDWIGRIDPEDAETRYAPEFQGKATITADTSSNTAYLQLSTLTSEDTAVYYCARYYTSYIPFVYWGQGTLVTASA VL: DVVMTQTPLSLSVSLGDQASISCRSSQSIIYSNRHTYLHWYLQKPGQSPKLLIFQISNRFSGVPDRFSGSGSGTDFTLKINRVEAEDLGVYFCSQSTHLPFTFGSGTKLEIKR What is its recorded OD 450 nm (reference 630 nm)?
Key: 1.8
